meta.source: paper PMC7321178

target-or-system: BuChE from equine serum (eqBuChE) (Equus caballus)
Construct: BuChE obtained from equine serum (eqBuChE); purchased Sigma–Aldrich (Steinheim, Germany); host or cells: horse serum
assay-text: biochemical
test-settings: mean ± SEM of at least three experiments
The threshold is 9 µM. Values of IC50 beneath it are tagged condition met; values meeting or exceeding it are tagged condition not met.

Query string: Field: below-cutoff. Rule: recorded IC50 strictly less than 9 µM. Subject: NCCCCN1c2ccc(F)cc2Sc2cc3ccccc3nc21
Result string: condition met

Query string: Field: below-cutoff. Rule: recorded IC50 strictly less than 9 µM. Subject: NCCCN1c2ccc(F)cc2Sc2cc3ccccc3nc21
Result string: condition met

Query string: Field: below-cutoff. Rule: recorded IC50 strictly less than 9 µM. Subject: C(#CCN1c2ccncc2Sc2ncccc21)CN1CCCC1
Result string: condition not met

Query string: Field: below-cutoff. Rule: recorded IC50 strictly less than 9 µM. Subject: CN1CCCCC1CCN1c2cccnc2Sc2cccnc21 (centres unmarked)
Result string: condition not met

Query string: Field: below-cutoff. Rule: recorded IC50 strictly less than 9 µM. Subject: O=C1c2ccccc2C(=O)N1CCCN1c2cccnc2Sc2cccnc21
Result string: condition not met

Query string: Field: below-cutoff. Rule: recorded IC50 strictly less than 9 µM. Subject: C(#CCN1c2cccnc2Sc2cccnc21)CN1CCCC1
Result string: condition met

* * *

target-or-system: BuChE from equine serum (eqBuChE) (Equus caballus, UniProt P81908)
Construct: BuChE obtained from equine serum (eqBuChE); purchased Sigma–Aldrich (Steinheim, Germany); host or cells: horse serum
Sequence (P81908 whole entry): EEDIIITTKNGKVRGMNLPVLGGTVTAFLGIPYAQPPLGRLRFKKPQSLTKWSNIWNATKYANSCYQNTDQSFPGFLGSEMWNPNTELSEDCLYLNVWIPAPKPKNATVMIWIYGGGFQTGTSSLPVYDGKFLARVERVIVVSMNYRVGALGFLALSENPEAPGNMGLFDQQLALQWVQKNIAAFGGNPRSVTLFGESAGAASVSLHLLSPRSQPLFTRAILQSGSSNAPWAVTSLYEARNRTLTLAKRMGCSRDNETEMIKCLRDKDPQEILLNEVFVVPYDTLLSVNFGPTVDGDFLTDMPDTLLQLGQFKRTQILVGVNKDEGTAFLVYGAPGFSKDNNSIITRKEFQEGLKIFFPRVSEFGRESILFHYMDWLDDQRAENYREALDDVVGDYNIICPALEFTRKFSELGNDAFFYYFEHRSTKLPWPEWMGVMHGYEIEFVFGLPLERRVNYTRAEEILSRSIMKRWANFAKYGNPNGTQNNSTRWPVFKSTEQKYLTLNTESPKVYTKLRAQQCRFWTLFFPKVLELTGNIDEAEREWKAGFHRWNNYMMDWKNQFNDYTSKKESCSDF
assay-text: biochemical
test-settings: 10 µM compound concentration; mean ± standard deviation; read-out: % Inhibition +/- SD (eqBuChE)
Protocol: Compounds selected through virtual screening were tested for their ability to inhibit the activity of selected biological targets. The cholinesterase-inhibitory potency of the compounds was evaluated according to Ellman’s method using AChE obtained from E. electricus (eeAChE) and BuChE obtained from equine serum (eqBuChE). […]
I'd appreciate it if you could supply inhibition at 10 µM values for the items below.
# value in %; strip the unit string

Documented inhibition at 10 µM of CCN(CC)CC#CCN1c2ccncc2Sc2ncccc21 : 17.2

Documented inhibition at 10 µM of CCN(C)CC#CCN1c2ccncc2Sc2ncccc21 : 20.4

Documented inhibition at 10 µM of CN1c2ccc(F)cc2Sc2cc3ccccc3nc21 : 35.3

Documented inhibition at 10 µM of NCCCN1c2ccc(F)cc2Sc2cc3ccccc3nc21 : 76.3

* * *

I'd appreciate it if you could supply inhibition at 10 µM values for the items below.
target-or-system: AChE from Electrophorus electricus (eeAChE) (Electrophorus electricus, UniProt O42275)
Construct: purchased Sigma–Aldrich (Steinheim, Germany)
Sequence (O42275 24-633): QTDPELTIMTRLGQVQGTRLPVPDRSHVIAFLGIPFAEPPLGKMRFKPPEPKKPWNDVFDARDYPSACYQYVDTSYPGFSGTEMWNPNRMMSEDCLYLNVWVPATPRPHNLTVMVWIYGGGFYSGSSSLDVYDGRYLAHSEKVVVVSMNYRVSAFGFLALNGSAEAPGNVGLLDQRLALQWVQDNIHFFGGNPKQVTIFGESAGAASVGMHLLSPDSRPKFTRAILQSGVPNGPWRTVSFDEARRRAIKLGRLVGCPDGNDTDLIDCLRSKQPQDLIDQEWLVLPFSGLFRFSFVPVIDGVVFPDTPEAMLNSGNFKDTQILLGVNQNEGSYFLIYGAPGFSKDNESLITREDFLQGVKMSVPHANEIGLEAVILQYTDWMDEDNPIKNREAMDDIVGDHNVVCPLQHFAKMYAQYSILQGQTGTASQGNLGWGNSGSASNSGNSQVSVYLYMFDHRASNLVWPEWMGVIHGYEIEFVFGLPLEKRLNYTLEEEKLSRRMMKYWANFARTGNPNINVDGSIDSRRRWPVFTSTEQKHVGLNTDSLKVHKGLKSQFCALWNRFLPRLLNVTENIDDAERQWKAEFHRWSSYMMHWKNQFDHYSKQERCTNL
assay-text: biochemical
test-settings: read-out: % Inhibition +/- SD (eeAChE)
# value in %; strip the unit string

Documented inhibition at 10 µM of NCCCN1c2ccc(F)cc2Sc2cc3ccccc3nc21 : 6.5

Documented inhibition at 10 µM of C(#CCN1c2cnccc2Sc2cccnc21)CN1CCCC1 : 57.3

Documented inhibition at 10 µM of C(#CCN1c2ccncc2Sc2ncccc21)CN1CCCC1 : 21.9

Documented inhibition at 10 µM of CCN(CC)CC#CCN1c2ccncc2Sc2ccncc21 : 20.1

Documented inhibition at 10 µM of CN1c2ccc(F)cc2Sc2cc3ccccc3nc21 : 3

Documented inhibition at 10 µM of CSc1ccc2c(c1)Sc1cc3ccccc3nc1N2CC#CCN1CCCC1 : 78

Documented inhibition at 10 µM of C(#CCN1c2ccncc2Sc2ccncc21)CN1CCCCC1 : 51.6

Documented inhibition at 10 µM of O=C1c2ccccc2C(=O)N1CCCN1c2ccncc2Sc2ncccc21 : 72.2

Documented inhibition at 10 µM of CCN(CC)CC#CCN1c2ccncc2Sc2ncccc21 : 10.1

Documented inhibition at 10 µM of CCN(C)CC#CCN1c2ccncc2Sc2ncccc21 : 7.7
